Can you tell me log10 Ki for the items I'm about to list?
Molecular target: Cannabinoid receptor 1 (Homo sapiens, UniProt P21554)
Sequence (P21554 whole entry): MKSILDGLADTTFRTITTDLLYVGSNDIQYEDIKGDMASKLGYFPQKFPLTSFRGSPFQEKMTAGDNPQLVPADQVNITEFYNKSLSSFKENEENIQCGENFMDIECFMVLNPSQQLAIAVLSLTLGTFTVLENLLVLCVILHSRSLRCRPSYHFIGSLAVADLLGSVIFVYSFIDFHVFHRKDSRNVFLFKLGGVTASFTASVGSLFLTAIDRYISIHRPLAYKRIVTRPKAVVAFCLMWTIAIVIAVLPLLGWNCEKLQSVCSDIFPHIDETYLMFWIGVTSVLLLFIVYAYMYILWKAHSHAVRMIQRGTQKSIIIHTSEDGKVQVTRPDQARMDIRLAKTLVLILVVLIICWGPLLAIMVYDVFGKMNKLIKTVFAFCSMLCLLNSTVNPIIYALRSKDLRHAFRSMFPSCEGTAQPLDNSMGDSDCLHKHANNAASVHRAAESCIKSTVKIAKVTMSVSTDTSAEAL
log10 Ki, nM

- compound: "C=C(C)C1CCC(C)=C[C@H]1c1c(O)cc(C2(C#N)CCCC2)cc1O (some centres undefined)"
  assayed_system: "Cannabinoid receptor 1 (Homo sapiens, UniProt P21554)"
  log10 Ki: 2.41

Hey, can you go through the list below and give me log10 Ki for every item?
1. CC1=CC[C@@H]2[C@@H](C1)c1c(O)cc(C(C)(C)CCCCC#N)cc1OC2(C)C
2. C=C(C)C1CCC(C)=C[C@H]1c1c(O)cc(C2(CCCCCC)SCCS2)cc1O (some centres undefined)
3. CC1=CC[C@@H]2[C@@H](C1)c1c(O)cc(C(C)(C)CCCCBr)cc1OC2(C)C
4. CC1=CC[C@@H]2[C@@H](C1)c1c(O)cc(C(C)(C)C3CCCCCC3)cc1OC2(C)C
5. C=C(C)C1CCC(C)=C[C@H]1c1c(O)cc(C2(C#N)CCCCC2)cc1O (some centres undefined)

OUT:
1: 0.24; 2: 2.13; 3: -0.37; 4: -0.03; 5: 2.50

---

Target: Cannabinoid receptor 2 (Homo sapiens, UniProt P34972)
Sequence (P34972 whole entry): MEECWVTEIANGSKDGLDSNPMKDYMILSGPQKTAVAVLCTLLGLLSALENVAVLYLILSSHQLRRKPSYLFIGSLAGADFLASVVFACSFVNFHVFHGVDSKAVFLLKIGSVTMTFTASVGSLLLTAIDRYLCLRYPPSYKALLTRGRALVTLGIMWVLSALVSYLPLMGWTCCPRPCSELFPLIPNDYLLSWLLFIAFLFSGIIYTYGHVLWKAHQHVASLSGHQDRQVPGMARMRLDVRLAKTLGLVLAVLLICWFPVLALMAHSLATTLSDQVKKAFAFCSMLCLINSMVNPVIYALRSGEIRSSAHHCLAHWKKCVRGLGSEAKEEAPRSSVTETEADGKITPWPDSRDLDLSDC
Assay: Binding affinity to CB2 receptor
pKi: −log10 of the molar value.
Outcome label depends on pKi relative to 8: at/above gives criterion met, below gives criterion not met.

Before answering, review these 5 worked examples.
- molecule: "CCCCCCC1(c2cc(O)c3c(c2)OC(C)(C)[C@@H]2CC=C(C)C[C@@H]32)CC1(Cl)Cl (some centres undefined)"
  class_assignment: "criterion met"
- molecule: "CC1=CC[C@@H]2[C@@H](C1)c1c(O)cc(C(C)(C)CCCCCC#N)cc1OC2(C)C"
  class_assignment: "criterion met"
- molecule: "CCCCCCC1(c2cc(O)c3c(c2)OC(C)(C)[C@@H]2CC=C(C)C[C@@H]32)CC1"
  class_assignment: "criterion met"
- molecule: "CCCCCCC1(c2cc(O)c3c(c2)OC(C)(C)[C@@H]2CC=C(C)C[C@@H]32)CC1(Br)Br (some centres undefined)"
  class_assignment: "criterion met"
- molecule: "C=C(C)C1CCC(C)=C[C@H]1c1c(O)cc(-c2cccc3ccccc23)cc1O (some centres undefined)"
  class_assignment: "criterion not met"

IN: Kindly determine if pKi recorded for C=C(C)C1CCC(C)=C[C@H]1c1c(O)cc(C2(C#N)CCCC2)cc1O (some centres undefined) is above or exactly 8.
OUT: criterion not met

IN: Kindly determine if pKi recorded for `CC1=CC[C@@H]2[C@@H](C1)c1c(O)cc(C(C)(C)CCCCC(=O)NN3CCCCC3)cc1OC2(C)C` is above or exactly 8.
OUT: criterion met

IN: Kindly determine if pKi recorded for C=C(C)C1CCC(C)=C[C@H]1c1c(O)cc(C2(CCCCCC)CC2)cc1O (some centres undefined) is above or exactly 8.
OUT: criterion not met

---

Biological target: Cannabinoid receptor 1 (Homo sapiens)
With a cut-off of 10 nM, any Ki strictly below it is called Criterion met; any Ki meeting it or above is called Criterion not met.

IN: Report whether reported Ki is lower than 10 nM (strictly) for `CC1=CC[C@@H]2[C@@H](C1)c1c(O)cc(C(C)(C)C)cc1OC2(C)C`
OUT: Criterion not met

IN: Report whether reported Ki is lower than 10 nM (strictly) for C=C(C)C1CCC(C)=C[C@H]1c1c(O)cc(-c2cccc3ccccc23)cc1O (some centres undefined)
OUT: Criterion not met

IN: Report whether reported Ki is lower than 10 nM (strictly) for `CC1=CC[C@@H]2[C@@H](C1)c1c(O)cc(C3(C#N)CCCCC3)cc1OC2(C)C`
OUT: Criterion met

IN: Report whether reported Ki is lower than 10 nM (strictly) for `CC1=CC[C@@H]2[C@@H](C1)c1c(O)cc(C3(C#N)CCCC3)cc1OC2(C)C`
OUT: Criterion not met

IN: Report whether reported Ki is lower than 10 nM (strictly) for `CC1=CC[C@@H]2[C@@H](C1)c1c(O)cc(-c3cccc4ccccc34)cc1OC2(C)C`
OUT: Criterion not met

IN: Report whether reported Ki is lower than 10 nM (strictly) for `CCCCCCC1(c2cc(O)c3c(c2)OC(C)(C)[C@@H]2CC=C(C)C[C@@H]32)CC1`
OUT: Criterion met

IN: Report whether reported Ki is lower than 10 nM (strictly) for `CC1=CC[C@@H]2[C@@H](C1)c1c(O)cc(C34CC5CC(CC(C5)C3)C4)cc1OC2(C)C`
OUT: Criterion met

IN: Report whether reported Ki is lower than 10 nM (strictly) for `CCCCCCC1(c2cc(O)c3c(c2)OC(C)(C)[C@@H]2CC=C(C)C[C@@H]32)CCCC1`
OUT: Criterion met

IN: Report whether reported Ki is lower than 10 nM (strictly) for `CC1=CC[C@@H]2[C@@H](C1)c1c(O)cc(C(C)(C)C3CCCC3)cc1OC2(C)C`
OUT: Criterion met
